Origin of measurements: the RNAGym collection of RNA variant scans (doi:10.1101/gad.245936.114)

B1: tRNA (parent)
chain: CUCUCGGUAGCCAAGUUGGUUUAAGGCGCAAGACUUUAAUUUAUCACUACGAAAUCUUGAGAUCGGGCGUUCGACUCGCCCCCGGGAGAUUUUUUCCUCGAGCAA

Variants of: B1
method_summary: nonsense suppression (GFP-seq) (ratio to wild type); higher = more function; SUP4oc tRNA, yeast GFP reporter sort-seq
This sample holds only a part of the variants without activity.
quantity_measured: nonsense suppression

mutations="C68A C75A" sign_qualifier== test_value=0.0286
mutations="U4G C81U" sign_qualifier== test_value=0.161
mutations="U4C G25A" sign_qualifier== test_value=0.162
mutations="G7A A23C C56G" sign_qualifier=≤ test_value=0.026
mutations="U2G C3U C27G G66A U70C" sign_qualifier=≤ test_value=0.026
mutations="U16G C29U" sign_qualifier== test_value=1.11
mutations="U2A A60G" sign_qualifier== test_value=0.0755
mutations="C12U U63G" sign_qualifier== test_value=0.121
mutations="A14G G78A" sign_qualifier== test_value=0.0272
mutations="U4A G19U" sign_qualifier=≤ test_value=0.026
mutations="G26C C29G" sign_qualifier== test_value=0.0685
mutations="U21G A87G" sign_qualifier== test_value=0.172
mutations="G15U C68G" sign_qualifier=≤ test_value=0.026
mutations="U22C A33U" sign_qualifier== test_value=0.202
mutations="U4C U8G G65A" sign_qualifier=≤ test_value=0.026
mutations="C5U G19C U35A A89G" sign_qualifier=≤ test_value=0.026
mutations="A54C G61C" sign_qualifier== test_value=0.216
mutations="C11U G85C A87G" sign_qualifier=≤ test_value=0.026
mutations="A23U G32U U63G C68A U70A A74C" sign_qualifier=≤ test_value=0.026
mutations="A33C U71G G86A" sign_qualifier=≤ test_value=0.026
mutations="U16A A31G G86U" sign_qualifier=≤ test_value=0.026
mutations="A62G C80U C81G" sign_qualifier=≤ test_value=0.026
